# credit: ChEMBL document CHEMBL3797154

Listed here: items and their measured GI50 at 48 h.
# EXPERIMENTAL_PROTOCOL: Cytotoxic activity against mouse RAW264.7 cells assessed as reduction in cell viability incubated for 48 hrs by […] based assay
Report only the number, with the unit µg/mL understood.

Here are 3 compounds together with their reported answers.
# COMPOUND, GI50 at 48 h / µg/mL
rows = [
    ("Cc1cc(CN2CCN(C3CCCCC3)CC2)c(C)n1-c1ccc(Cl)cc1", 5.5),
    ("Cc1cc(CN2CCN(C3C[C@@H]4CC[C@H]3C4)CC2)c(C)n1-c1ccc(Cl)cc1 (mixture of isomers)", 5.6),
    ("Cc1cc(CNCCc2ccccc2)c(C)n1-c1ccc(Cl)cc1", 9.9),
]

Sample Cc1cc(CNCc2ccccc2)c(C)n1-c1ccc(Cl)cc1 — what was its GI50 at 48 h?
5.5

Sample Cc1c(CN2CCN(c3ccccc3)CC2)cc(-c2ccc(Cl)cc2)n1-c1ccc(Cl)cc1 — what was its GI50 at 48 h?
175

Sample Cc1cc(CNCc2ccccc2)c(C)n1-c1ccc(F)cc1 — what was its GI50 at 48 h?
5.6

Sample Cc1cc(CN2CCN(c3ccccc3)CC2)c(C)n1-c1ccc(Cl)cc1 — what was its GI50 at 48 h?
33
